Ref: the Human Domainome abundance scans (Beltran et al. 2025)

# maps each entry to its abundance fitness
B1: Tyrosine-protein kinase BTK, residues 215 to 273; numbered along this chain, Q06187 (parent)
chain: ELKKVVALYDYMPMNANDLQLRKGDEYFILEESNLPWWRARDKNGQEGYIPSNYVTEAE

Variants of: B1
Assay: abundance fitness (aPCA) (normalised: wild type 0, dead -1); higher = more abundant; growth selection in yeast, the domain comes from the species named
Conditions: Homo sapiens
Readout Kind: abundance fitness

> print(dat)
    mutation.string  test.value
 1             N17F      -0.029
 2             L19Q      -0.711
 3             E47R      -0.244
 4             Y54F       0.101
 5             S52Q      -0.032
 6             Y49Q       0.064
 7             Y27R      -0.772
 8             K43H      -0.026
 9             I50K       -1.02
10             L35F       0.012
11             K43D      -0.094
12             G45H      -0.118
13             N34Q       0.118
14             R22C      -0.004
15             Y27M      -0.362
16             E26H      -0.134
17             L21H      -0.761
18             Q20N      -0.152
19             I50M      -0.291
20             T56N      -0.094
21             N17C       -0.01
22             W37P      -0.227
23             L35K      -0.039
24             L21K      -0.892
25             R41Q      -0.006
26             E26Q      -0.079
27             D18T      -0.034
28             K43P      -0.098
29             I29L      -0.008
30             N34E       0.037
